Value source: patent US7569601B2

Test Readout: melting point

Any idea what its melting point is? The compound is CC1(C)CC(=C(c2ccc(O)cc2)c2ccc(-c3ccccc3CO)cc2)CC(C)(C)C1 [Example 108] 171 to 172 °C

Any idea what its melting point is? The compound is CC1(C)CC(=C(c2ccc(O)cc2)c2ccc(CC(=O)O)cc2)CC(C)(C)C1 [Example 51] 220 to 221 °C

Any idea what its melting point is? The compound is CC1(C)CC(=C(c2ccc(O)cc2)c2ccc(C#CCCC(=O)O)cc2)CC(C)(C)C1 [Example 103] 233 to 234 °C

Please look at the following compound next.
Any idea what its melting point is? The compound is CC1(C)CC(=C(c2ccc(/C=C/C(=O)O)cc2)c2ccc(O)c(Cl)c2)CC(C)(C)O1 [Example 44] 118 to 121 °C

---

Test Readout: melting point

// below: answered compounds
Any idea what its melting point is? The compound is `CC1(C)CC(=C(c2ccc(O)cc2)c2ccc(C#CCCO)cc2)CC(C)(C)C1` 183 to 184 °C

Any idea what its melting point is? The compound is `CC(=O)c1ccc(C(=C2CC(C)(C)CC(C)(C)C2)c2ccc(O)cc2)cc1` 195 to 196 °C

Any idea what its melting point is? The compound is `O=C(O)/C=C/c1ccc(C(=C2CCCCCC2)c2ccc(O)c(F)c2)cc1` 164 to 165 °C

Any idea what its melting point is? The compound is `CC1(C)CC(=C(c2ccc(O)cc2)c2ccc(OCCO)cc2)CC(C)(C)C1` 154 to 155 °C

Any idea what its melting point is? The compound is `CC1(C)CC(=C(c2ccc(O)cc2)c2ccc(-c3cccc(CO)c3)cc2)CC(C)(C)C1` 197 to 198 °C

Any idea what its melting point is? The compound is `CC1(C)CC(=C(c2ccc(O)cc2)c2ccc(C#CCO)cc2)CC(C)(C)C1` 141 to 142 °C

Any idea what its melting point is? The compound is `CC1(C)CC(=C(c2ccc(O)cc2)c2ccc(CCO)cc2)CC(C)(C)C1` 159 to 160 °C

Please look at the following compound next.
Any idea what its melting point is? The compound is `CC1(C)CC(=C(c2ccc(O)cc2)c2ccc(-c3ccccc3C(=O)O)cc2)CC(C)(C)C1` 230 to 231 °C

---

Listing: melting point of selected molecules

// below: answered molecules
Any idea what its melting point is? The molecule is `CC1(C)CC(=C(c2ccc(O)cc2)c2ccc(-c3ccoc3)cc2)CC(C)(C)C1` 128 to 129 °C

Any idea what its melting point is? The molecule is `CC1(C)CC(=C(c2ccc(O)cc2)c2ccc(OCCOCCO)cc2)CC(C)(C)C1` 122 to 124 °C

More entries:
Any idea what its melting point is? The molecule is `CC1(C)CC(=C(c2ccc(/C=C/C(=O)O)cc2)c2ccc(O)c(Cl)c2)CC(C)(C)C1` 111 to 114 °C

Any idea what its melting point is? The molecule is `CC1(C)CC(=C(c2ccc(O)cc2)c2ccc(/C=C/C(=O)O)cc2)CC(C)(C)C1` 219 to 220 °C

---

Test Readout: melting point

// below: answered compounds
Any idea what its melting point is? The compound is O=C(O)/C=C/c1ccc(C(=C2CCCCCC2)c2ccc(O)c(Cl)c2)cc1 [Example 42] 155 to 156 °C

Any idea what its melting point is? The compound is OCCCC#Cc1ccc(C(=C2CCCCCC2)c2ccc(O)cc2)cc1 [Example 100] 125 to 126 °C

Any idea what its melting point is? The compound is CC(C)(O)C#Cc1ccc(C(=C2CC(C)(C)CC(C)(C)C2)c2ccc(O)cc2)cc1 [Example 101] 186 to 187 °C

Please look at the following compound next.
Any idea what its melting point is? The compound is CC1(C)CC(=C(c2ccc(O)cc2)c2ccc(C(N)=O)cc2)CC(C)(C)C1 [Example 31] 209 to 210 °C
